pIC50: −log10 of the molar value.
value_type: pIC50

Param readout = pIC50; param system = Prostacyclin receptor (Homo sapiens, UniProt P43119); param query = CP(=O)(O)CCC/C=C\C[C@@H]1[C@@H](/C=C/[C@@H](O)COc2ccccc2)[C@H](O)C[C@@H]1O ; response: value
Sequence (P43119 whole entry): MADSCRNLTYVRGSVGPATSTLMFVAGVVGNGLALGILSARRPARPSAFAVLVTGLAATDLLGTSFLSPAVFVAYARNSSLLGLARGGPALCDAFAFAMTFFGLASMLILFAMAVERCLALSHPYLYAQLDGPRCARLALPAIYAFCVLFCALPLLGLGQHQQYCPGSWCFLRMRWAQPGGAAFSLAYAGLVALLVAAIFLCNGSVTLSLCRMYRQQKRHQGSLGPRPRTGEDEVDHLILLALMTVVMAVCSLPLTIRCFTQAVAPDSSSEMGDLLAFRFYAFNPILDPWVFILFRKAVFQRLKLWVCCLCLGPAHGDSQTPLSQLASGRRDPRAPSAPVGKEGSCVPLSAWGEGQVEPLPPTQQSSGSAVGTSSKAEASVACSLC
< 5.00

State its pIC50 on Prostacyclin receptor (Homo sapiens, UniProt P43119): CCCCC[C@H](O)/C=C/[C@@H]1[C@@H](C/C=C\CCCC(=O)O)[C@@H](O)C[C@H]1O [DINOPROST]
< 5.00

###

Hi there, I'd appreciate the recorded IC50 for every entry that follows.
biological target: Prostaglandin F2-alpha receptor (Homo sapiens); assay: In vitro binding at FP human prostaglandin receptor using [3H]PGF-2 alpha as radioligand
Write the answer as a number in nM, unit excluded.

For CCCCC[C@H](O)/C=C/[C@@H]1[C@@H](C/C=C\CCC[PH](=O)O)[C@@H](O)C[C@H]1O , what is its reported IC50?
114

# IC50 lookup, item CCCCC[C@H](O)/C=C/[C@@H]1[C@@H](C/C=C\CCCP(C)(=O)O)[C@@H](O)C[C@H]1O
311

Record request: IC50 value, item O=C(O)CCC/C=C\C[C@@H]1[C@@H](/C=C/[C@@H](O)COc2ccccc2)[C@H](O)C[C@@H]1O
2

What value of IC50 has been reported for the following compound? CCCCC[C@H](O)/C=C/[C@@H]1[C@@H](C/C=C\CCCP(=O)(O)CCCC)[C@@H](O)C[C@H]1O
6700

State the recorded IC50 for this entry: CCCCC[C@H](O)/C=C/[C@@H]1[C@@H](C/C=C\CCCP(=O)(O)CC)[C@@H](O)C[C@H]1O
4100

###

target: Prostaglandin E2 receptor EP2 subtype (Homo sapiens, UniProt P43116); test: In vitro binding at EP2 human prostaglandin receptor
Sequence (P43116 whole entry): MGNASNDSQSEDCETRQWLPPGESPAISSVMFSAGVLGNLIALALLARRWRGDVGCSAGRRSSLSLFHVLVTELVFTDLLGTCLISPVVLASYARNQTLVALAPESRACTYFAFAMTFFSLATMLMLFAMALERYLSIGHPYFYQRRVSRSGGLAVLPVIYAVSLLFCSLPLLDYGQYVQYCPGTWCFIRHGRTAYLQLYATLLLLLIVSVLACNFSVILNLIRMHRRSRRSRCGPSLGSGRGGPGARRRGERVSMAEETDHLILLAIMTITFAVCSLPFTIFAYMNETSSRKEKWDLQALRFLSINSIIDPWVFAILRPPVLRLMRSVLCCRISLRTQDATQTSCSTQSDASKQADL
pIC50: −log10 of the molar value.
value_type: pIC50

Hi! What's the reported pIC50 for CP(=O)(O)CCC/C=C\C[C@@H]1[C@@H](/C=C/[C@@H](O)COc2ccccc2)[C@H](O)C[C@@H]1O on Prostaglandin E2 receptor EP2 subtype (Homo sapiens, UniProt P43116)?
< 5.00

###

Hi there, I'd appreciate the recorded pKa for every entry that follows.
test: Dissociation constant was determined; assay type: physicochemical
Answer with a number only.

Which pKa value is on record for CCCCC[C@H](O)/C=C/[C@@H]1[C@@H](C/C=C\CCCC(=O)O)[C@@H](O)C[C@H]1O [DINOPROST] ?
4.77

I have this compound here, CCCCC[C@H](O)/C=C/[C@@H]1[C@@H](C/C=C\CCCP(C)(=O)O)[C@@H](O)C[C@H]1O , and I need its recorded pKa.
3.1

Which pKa is reported for this compound? O=C(O)CCC/C=C\C[C@@H]1[C@@H](/C=C/[C@@H](O)COc2ccccc2)[C@H](O)C[C@@H]1O
4.77

Can you look up the measured pKa of CCCCC[C@H](O)/C=C/[C@@H]1[C@@H](C/C=C\CCC[PH](=O)O)[C@@H](O)C[C@H]1O for me?
3.39

I'd like to know its pKa. The compound in question is CP(=O)(O)CCC/C=C\C[C@@H]1[C@@H](/C=C/[C@@H](O)COc2ccccc2)[C@H](O)C[C@@H]1O
3.1

If you can, please state the reported pKa value of CCCCC[C@H](O)/C=C/[C@@H]1[C@@H](C/C=C\CCCP(=O)(O)O)[C@@H](O)C[C@H]1O .
2.38

Name the recorded pKa for CCCCC[C@H](O)/C=C/[C@@H]1[C@@H](C/C=C\CCCP(=O)(O)OCC)[C@@H](O)C[C@H]1O .
2.36

Can you share its pKa? I mean this compound: CCCCC[C@H](O)/C=C/[C@@H]1[C@@H](C/C=C\CCCP(=O)(O)CCCC)[C@@H](O)C[C@H]1O
3.36

Could you tell me which pKa is on file for CCCCC[C@H](O)/C=C/[C@@H]1[C@@H](C/C=C\CCCP(=O)(O)CC)[C@@H](O)C[C@H]1O ?
3.24

###

molecular target: Prostaglandin F2-alpha receptor (Homo sapiens, UniProt P43088); assay: In vitro binding at FP human prostaglandin receptor using [3H]- PGF-2 alpha as radioligand
Sequence (P43088 whole entry): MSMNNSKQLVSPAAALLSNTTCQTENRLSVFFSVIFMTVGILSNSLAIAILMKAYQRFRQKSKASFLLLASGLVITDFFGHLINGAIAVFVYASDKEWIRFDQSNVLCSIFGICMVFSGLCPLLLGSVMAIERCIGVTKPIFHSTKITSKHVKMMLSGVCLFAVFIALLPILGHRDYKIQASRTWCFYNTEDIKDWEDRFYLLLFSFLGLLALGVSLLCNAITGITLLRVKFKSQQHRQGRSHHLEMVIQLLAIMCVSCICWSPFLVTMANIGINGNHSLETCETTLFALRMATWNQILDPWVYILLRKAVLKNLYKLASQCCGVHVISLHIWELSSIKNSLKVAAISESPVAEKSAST
value_type: IC50 (nM)
Provide only the numeric value, understood in nM.

IC50 lookup needed for CCCCC[C@H](O)/C=C/[C@@H]1[C@@H](C/C=C\CCCP(=O)(O)O)[C@@H](O)C[C@H]1O , thanks.
1000

###

target: Prostaglandin D2 receptor (Homo sapiens, UniProt Q13258); experiment: In vitro binding at DP human prostaglandin receptor using [3H]- PGD-2 as radioligand
Sequence (Q13258 whole entry): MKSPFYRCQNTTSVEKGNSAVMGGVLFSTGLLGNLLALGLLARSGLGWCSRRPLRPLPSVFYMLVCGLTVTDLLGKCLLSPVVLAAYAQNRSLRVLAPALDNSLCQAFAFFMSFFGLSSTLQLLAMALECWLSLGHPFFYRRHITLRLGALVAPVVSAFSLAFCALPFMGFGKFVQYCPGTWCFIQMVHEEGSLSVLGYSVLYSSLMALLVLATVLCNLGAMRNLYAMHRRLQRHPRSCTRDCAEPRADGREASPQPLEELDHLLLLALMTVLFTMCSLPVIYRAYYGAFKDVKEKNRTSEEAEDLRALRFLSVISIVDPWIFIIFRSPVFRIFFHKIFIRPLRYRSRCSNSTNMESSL
pIC50: −log10 of the molar value.
Exercise: state measured pIC50 for each of the molecules provided.

Look up pIC50 for this molecule: CP(=O)(O)CCC/C=C\C[C@@H]1[C@@H](/C=C/[C@@H](O)COc2ccccc2)[C@H](O)C[C@@H]1O
< 5.00

Quick check: pIC50 of CCCCC[C@H](O)/C=C/[C@@H]1[C@@H](C/C=C\CCC[PH](=O)O)[C@@H](O)C[C@H]1O ?
< 5.00

###

target: UniProt:P34995; test: Functional activity in RAT-1 cells, transiently transfected with human prostaglandin EP1 receptor
Sequence (P34995 whole entry): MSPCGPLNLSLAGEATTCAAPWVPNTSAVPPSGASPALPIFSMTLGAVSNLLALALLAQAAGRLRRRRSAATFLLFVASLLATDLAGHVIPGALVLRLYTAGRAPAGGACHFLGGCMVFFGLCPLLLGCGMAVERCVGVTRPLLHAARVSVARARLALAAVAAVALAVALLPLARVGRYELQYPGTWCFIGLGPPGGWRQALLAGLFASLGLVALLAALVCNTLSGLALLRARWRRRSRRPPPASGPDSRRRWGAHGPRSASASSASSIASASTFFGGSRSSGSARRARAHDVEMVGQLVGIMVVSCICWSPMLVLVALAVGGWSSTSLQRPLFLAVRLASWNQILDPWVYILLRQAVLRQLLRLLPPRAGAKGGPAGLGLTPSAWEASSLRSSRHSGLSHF
value_type: pEC50
Interpret pEC50 as the negative base-10 log of the concentration measured in mol/L.

Any idea what its pEC50 is? The compound is O=C(O)CCC/C=C\C[C@@H]1[C@@H](/C=C/[C@@H](O)COc2ccccc2)[C@H](O)C[C@@H]1O
7.42

###

target: Thromboxane A2 receptor (Homo sapiens, UniProt P21731); assay: Functional activity in RAT-1 cells, transiently transfected with human prostaglandin TP receptor
Sequence (P21731 whole entry): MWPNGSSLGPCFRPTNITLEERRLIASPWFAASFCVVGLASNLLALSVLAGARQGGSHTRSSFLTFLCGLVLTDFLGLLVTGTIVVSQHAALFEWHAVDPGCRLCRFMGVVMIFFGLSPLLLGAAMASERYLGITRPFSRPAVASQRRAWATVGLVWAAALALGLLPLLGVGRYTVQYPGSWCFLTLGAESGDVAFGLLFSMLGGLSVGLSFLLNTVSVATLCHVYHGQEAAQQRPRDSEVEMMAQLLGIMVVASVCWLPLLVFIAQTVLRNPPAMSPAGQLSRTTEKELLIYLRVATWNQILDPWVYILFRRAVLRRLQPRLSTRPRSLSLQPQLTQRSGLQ
value_type: EC50 (nM)
Provide only the numeric value, understood in nM.

Consider the molecule shown here: O=C(O)CCC/C=C\C[C@@H]1[C@@H](/C=C/[C@@H](O)COc2ccccc2)[C@H](O)C[C@@H]1O What is its recorded EC50?
510

###

value_type: IC50

For Prostaglandin E2 receptor EP4 subtype (Homo sapiens, UniProt P35408), provide IC50 of CP(=O)(O)CCC/C=C\C[C@@H]1[C@@H](/C=C/[C@@H](O)COc2ccccc2)[C@H](O)C[C@@H]1O please.
> 10 µM
